Overview of reported melting point across a group of molecules:

Recorded melting point, per entry:
- molecule: "COc1ccc(NC=C2C(=O)OC(=O)c3cc4cccc(C)c4nc32)cc1OC"
  melting point: "280 to 281 °C"
- molecule: "Nc1ncnc2c1nc(SCC(O)COc1ccccc1)n2C1OC(CO)C(O)C1O (stereo not given)"
  melting point: "100 to 110 °C"
- molecule: "O=C(O)CCCCNS(=O)(=O)c1ccc(N2CCCCCCC2)cc1"
  melting point: "149 to 150 °C"

melting point recorded for this molecule, "O=C(NC(=O)N(SC(Cl)(Cl)Cl)c1ccc(C(F)(F)F)cc1)c1c(F)cccc1F" , is 129 to 130 °C

melting point recorded for this molecule, "CCCn1c(=O)c2c(nc(/C=C/c3ccc(OCC)c(OCC)c3)n2C)n(CCC)c1=O" , is 174 °C

Reference source: a melting point compilation (Tetko et al.; mined from patent text by program, amines drawn as free bases though some values may be those of a salt)
